All values here come from patent US8889874B2.

# Tested on: Non-small cell lung cancer cell lines
# ASSAY_DETAILS: NCI anticancer screen, SRB assay, panel summary
# Type: cell-based, human
# CONDITION_NOTES: Homo sapiens; nine non-small cell lung cancer cell lines; exposure at least 48 hrs; read-out: GI50, range over the panel
Give measured GI50 for each item. Keep answers brief.

Param item = O=C(/C=C/c1cccc(O)c1)c1cccc(-n2cc(-c3ccc4ccccc4c3)[nH]c2=O)c1 [12b] ; retrieve measured GI50.
0.51 to 3.38 µM

Param item = COc1ccc(-c2cn(-c3cccc(C(=O)/C=C/c4ccc(O)c(OC)c4)c3)c(=O)[nH]2)cc1 ; retrieve measured GI50.
2.85 to 13.4 µM

Param item = O=C(/C=C/c1cccc(O)c1)c1cccc(-n2cc(-c3ccccc3)[nH]c2=O)c1 ; retrieve measured GI50.
2.49 to 24.8 µM

Param item = COc1cc(/C=C/C(=O)c2cccc(-n3cc(-c4ccccc4)[nH]c3=O)c2)ccc1O ; retrieve measured GI50.
1.48 to 3.9 µM

----------
# Tested on: NCI-H322M (non-small cell lung)
# ASSAY_DETAILS: NCI anticancer screen, SRB assay, 48 h
# Format: cell-based, human
# CONDITION_NOTES: Homo sapiens, read-out: pGI50 (-log of molar concentration causing 50% inhibition of net cell growth) (converted)
# Method: Some of biological activity studies were carried out at the National Cancer Institute (NCI), Maryland, USA. The compounds were evaluated for anticancer activity against fifty three human cancer cells derived from nine cancer types (leukemia cell line, non-small-cell lung cell line, colon cell line, CNS cell line, melanoma cell line, ovarian cell line, prostate cell line, and breast cancer cell line) as shown in Table 1. […]
Rule for this label: 1 means GI50 is less than 3 µM; 0 means GI50 is at least 3 µM.

# strict comparison: is reported GI50 < 3 µM? input = COc1ccc(-c2cn(-c3cccc(C(=O)/C=C/c4ccc(O)c(OC)c4)c3)c(=O)[nH]2)cc1
0

# strict comparison: is reported GI50 < 3 µM? input = COc1cc(/C=C/C(=O)c2cccc(-n3cc(-c4ccccc4)[nH]c3=O)c2)ccc1O
0

# strict comparison: is reported GI50 < 3 µM? input = COc1cc(/C=C/C(=O)c2cccc(-n3cc(-c4cc(OC)c(OC)c(OC)c4)[nH]c3=O)c2)cc(OC)c1OC
0

# strict comparison: is reported GI50 < 3 µM? input = O=C(/C=C/c1cccc(O)c1)c1cccc(-n2cc(-c3ccc(Cl)cc3)[nH]c2=O)c1
1

# strict comparison: is reported GI50 < 3 µM? input = COc1cc(/C=C/C(=O)c2cccc(-n3cc(-c4ccc(Cl)cc4)[nH]c3=O)c2)ccc1O
0

# strict comparison: is reported GI50 < 3 µM? input = O=C(/C=C/c1cccc(O)c1)c1cccc(-n2cc(-c3ccc4ccccc4c3)[nH]c2=O)c1 [12b]
1

# strict comparison: is reported GI50 < 3 µM? input = COc1cc(/C=C/C(=O)c2cccc(-n3cc(-c4ccccc4)[nH]c3=O)c2)cc(OC)c1OC
1

# strict comparison: is reported GI50 < 3 µM? input = O=C(/C=C/c1cccc(O)c1)c1cccc(-n2cc(-c3ccccc3)[nH]c2=O)c1
0

----------
# Test system: SW-620 (colon)
# ASSAY_DETAILS: NCI anticancer screen, SRB assay, 48 h
# Format: cell-based, human
# CONDITION_NOTES: Homo sapiens, 48 h exposure, SRB, read-out: GI50
VALUE_TYPE: GI50 (nM)
Please state the figure in nM; there is no need to write the unit.

Param item = COc1cc(/C=C/C(=O)c2cccc(-n3cc(-c4ccccc4)[nH]c3=O)c2)ccc1O ; retrieve measured GI50.
2290

Param item = O=C(/C=C/c1cccc(O)c1)c1cccc(-n2cc(-c3ccccc3)[nH]c2=O)c1 ; retrieve measured GI50.
2410

Param item = COc1cc(/C=C/C(=O)c2cccc(-n3cc(-c4cc(OC)c(OC)c(OC)c4)[nH]c3=O)c2)cc(OC)c1OC ; retrieve measured GI50.
1030

Param item = COc1cc(/C=C/C(=O)c2cccc(-n3cc(-c4ccccc4)[nH]c3=O)c2)cc(OC)c1OC ; retrieve measured GI50.
390

----------
# Test system: TK-10 (renal)
# ASSAY_DETAILS: NCI anticancer screen, SRB assay, 48 h
# Format: cell-based, human
# CONDITION_NOTES: Homo sapiens, 48 h exposure, SRB, read-out: GI50
Give measured GI50 for each item. Keep answers brief.
Please state the figure in µM; there is no need to write the unit.

Param item = O=C(/C=C/c1cccc(O)c1)c1cccc(-n2cc(-c3ccc(Cl)cc3)[nH]c2=O)c1 [4f] ; retrieve measured GI50.
2.83

Param item = O=C(/C=C/c1cccc(O)c1)c1cccc(-n2cc(-c3ccc4ccccc4c3)[nH]c2=O)c1 [12b] ; retrieve measured GI50.
3.45

Param item = COc1cc(/C=C/C(=O)c2cccc(-n3cc(-c4ccccc4)[nH]c3=O)c2)cc(OC)c1OC [5a] ; retrieve measured GI50.
3.02

Param item = COc1cc(/C=C/C(=O)c2cccc(-n3cc(-c4cc(OC)c(OC)c(OC)c4)[nH]c3=O)c2)cc(OC)c1OC [5d] ; retrieve measured GI50.
3

Param item = COc1cc(/C=C/C(=O)c2cccc(-n3cc(-c4ccccc4)[nH]c3=O)c2)ccc1O [3a] ; retrieve measured GI50.
5.29

Param item = COc1ccc(-c2cn(-c3cccc(C(=O)/C=C/c4ccc(O)c(OC)c4)c3)c(=O)[nH]2)cc1 [3b] ; retrieve measured GI50.
6.08

Param item = COc1cc(/C=C/C(=O)c2cccc(-n3cc(-c4ccc(Cl)cc4)[nH]c3=O)c2)ccc1O [3f] ; retrieve measured GI50.
4.67

----------
Give measured GI50 for each item. Keep answers brief.
# Tested on: NCI-H522 (non-small cell lung)
# ASSAY_DETAILS: NCI anticancer screen, SRB assay, 48 h
# Assay type: cell-based, human
# CONDITION_NOTES: Homo sapiens, 48 h exposure, SRB, read-out: GI50
Please state the figure in nM; there is no need to write the unit.

Given the entry COc1cc(/C=C/C(=O)c2cccc(-n3cc(-c4ccccc4)[nH]c3=O)c2)ccc1O , what GI50 was observed with NCI-H522 (non-small cell lung)?
2360

Given the entry O=C(/C=C/c1cccc(O)c1)c1cccc(-n2cc(-c3ccc(Cl)cc3)[nH]c2=O)c1 , what GI50 was observed with NCI-H522 (non-small cell lung)?
1650

Given the entry COc1ccc(-c2cn(-c3cccc(C(=O)/C=C/c4ccc(O)c(OC)c4)c3)c(=O)[nH]2)cc1 , what GI50 was observed with NCI-H522 (non-small cell lung)?
3480

Given the entry COc1cc(/C=C/C(=O)c2cccc(-n3cc(-c4ccc(Cl)cc4)[nH]c3=O)c2)ccc1O , what GI50 was observed with NCI-H522 (non-small cell lung)?
2360

----------
Give measured GI50 for each item. Keep answers brief.
# Tested on: MALME-3M (melanoma)
# ASSAY_DETAILS: NCI anticancer screen, SRB assay, 48 h
# Type: cell-based, human
# CONDITION_NOTES: Homo sapiens; MALME-3M; 48 h exposure; SRB; read-out: GI50
Please state the figure in nM; there is no need to write the unit.

Param item = COc1cc(/C=C/C(=O)c2cccc(-n3cc(-c4ccc(Cl)cc4)[nH]c3=O)c2)ccc1O ; retrieve measured GI50.
3060

Param item = COc1cc(/C=C/C(=O)c2cccc(-n3cc(-c4ccccc4)[nH]c3=O)c2)ccc1O ; retrieve measured GI50.
2670

Param item = O=C(/C=C/c1cccc(O)c1)c1cccc(-n2cc(-c3ccc(Cl)cc3)[nH]c2=O)c1 ; retrieve measured GI50.
1830

Param item = O=C(/C=C/c1cccc(O)c1)c1cccc(-n2cc(-c3ccc4ccccc4c3)[nH]c2=O)c1 [12b] ; retrieve measured GI50.
2080

Param item = COc1cc(/C=C/C(=O)c2cccc(-n3cc(-c4cc(OC)c(OC)c(OC)c4)[nH]c3=O)c2)cc(OC)c1OC ; retrieve measured GI50.
1800

Param item = COc1cc(/C=C/C(=O)c2cccc(-n3cc(-c4ccccc4)[nH]c3=O)c2)cc(OC)c1OC ; retrieve measured GI50.
1310

Param item = O=C(/C=C/c1cccc(O)c1)c1cccc(-n2cc(-c3ccccc3)[nH]c2=O)c1 ; retrieve measured GI50.
6210

Param item = COc1ccc(-c2cn(-c3cccc(C(=O)/C=C/c4ccc(O)c(OC)c4)c3)c(=O)[nH]2)cc1 ; retrieve measured GI50.
4420

----------
Give measured GI50 for each item. Keep answers brief.
# Tested on: UACC-257 (melanoma)
# ASSAY_DETAILS: NCI anticancer screen, SRB assay, 48 h
# Assay type: cell-based, human
# CONDITION_NOTES: Homo sapiens, read-out: pGI50 (-log of molar concentration causing 50% inhibition of net cell growth) (converted)
# Experimental: Some of biological activity studies were carried out at the National Cancer Institute (NCI), Maryland, USA. The compounds were evaluated for anticancer activity against fifty three human cancer cells derived from nine cancer types (leukemia cell line, non-small-cell lung cell line, colon cell line, CNS cell line, melanoma cell line, ovarian cell line, prostate cell line, and breast cancer cell line) as shown in Table 1. […]
Please state the figure in µM; there is no need to write the unit.

Param item = COc1cc(/C=C/C(=O)c2cccc(-n3cc(-c4cc(OC)c(OC)c(OC)c4)[nH]c3=O)c2)cc(OC)c1OC ; retrieve measured GI50.
2.24

Param item = COc1ccc(-c2cn(-c3cccc(C(=O)/C=C/c4ccc(O)c(OC)c4)c3)c(=O)[nH]2)cc1 ; retrieve measured GI50.
13.2

Param item = O=C(/C=C/c1cccc(O)c1)c1cccc(-n2cc(-c3ccccc3)[nH]c2=O)c1 ; retrieve measured GI50.
7.76

Param item = O=C(/C=C/c1cccc(O)c1)c1cccc(-n2cc(-c3ccc(Cl)cc3)[nH]c2=O)c1 ; retrieve measured GI50.
4.07
